Experiment: Critical micelle concentration by fluorescence staining with diphenylhexatriene (DPH)
Assay type: physicochemical
Details: aqueous solution
parameter: CMC (wt %)

Query block: Which CMC (wt %) value belongs to CCCCCCCCCC(CO[C@@H]1OC(CO)[C@@H](O[C@H]2OC(CO)[C@@H](O)C(O)C2O)C(O)C1O)(CO[C@@H]1OC(CO)[C@@H](O[C@H]2OC(CO)[C@@H](O)C(O)C2O)C(O)C1O)Cc1ccc(CC(CCCCCCCCC)(CO[C@@H]2OC(CO)[C@@H](O[C@H]3OC(CO)[C@@H](O)C(O)C3O)C(O)C2O)CO[C@@H]2OC(CO)[C@@H](O[C@H]3OC(CO)[C@@H](O)C(O)C3O)C(O)C2O)cc1 (stereo partly drawn) ?
Result block: ~0.002 wt %

Query block: Please give the measured CMC (wt %) for this compound: CCCCCCCCCCCC(CO[C@@H]1OC(CO)[C@@H](O[C@H]2OC(CO)[C@@H](O)C(O)C2O)C(O)C1O)(CO[C@@H]1OC(CO)[C@@H](O[C@H]2OC(CO)[C@@H](O)C(O)C2O)C(O)C1O)Cc1ccc(CC(CCCCCCCCCCC)(CO[C@@H]2OC(CO)[C@@H](O[C@H]3OC(CO)[C@@H](O)C(O)C3O)C(O)C2O)CO[C@@H]2OC(CO)[C@@H](O[C@H]3OC(CO)[C@@H](O)C(O)C3O)C(O)C2O)cc1 (stereo partly drawn)
Result block: ~0.0006 wt %

Query block: Param item = CCCCCCCCCCCCCCCCC(CO[C@@H]1OC(CO)[C@@H](O[C@@H]2OC(CO)[C@@H](O)C(O)C2O)C(O)C1O)(CO[C@@H]1OC(CO)[C@@H](O[C@@H]2OC(CO)[C@@H](O)C(O)C2O)C(O)C1O)Cc1ccccc1CC(CCCCCCCCCCCCCCCC)(CO[C@@H]1OC(CO)[C@@H](O[C@@H]2OC(CO)[C@@H](O)C(O)C2O)C(O)C1O)CO[C@@H]1OC(CO)[C@@H](O[C@@H]2OC(CO)[C@@H](O)C(O)C2O)C(O)C1O (stereo partly drawn) ; retrieve measured CMC (wt %).
Result block: ~0.0004 wt %
